Reported composite z-score values follow for various compounds
molecular target: Follistatin-related protein 3 (Homo sapiens); experiment: compounds binding follistatin-related protein 3 – biochemical, small-molecule microarray, 635 nm fluorescence, primary screen (AID 1105); settings: FSTL3 binding, higher = more signal;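 also: score merges emission near 667 nm and signal to noise per printed spot across three slides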
Write no unit; give the number alone.

COC(=O)C1(C)C=C2C(=C(C)C(=O)C2C)CN1 (stereo not given); -0.729
COc1cc2c(cc1O)C=[N+](C)CC2; 0.137
COC(=O)[C@@]1(Cc2ccccc2)[C@H]2c3cc(C(=O)N(C)C)n(C)c3C[C@H]2CN1C(=O)c1ccccc1; -0.443

In: Name the recorded composite z-score for COC(=O)[C@H]1[C@H](c2ccccc2)C(=O)[C@]2(O)c3ccccc3O[C@@]12c1ccccc1 .
Out: 0.419

In: Report composite z-score for CCCc1cc2c(n1Cc1ccco1)C(C)C1CN(C(=O)c3ccccc3)C(C)(C(=O)OC)C21 (stereo not given) please.
Out: 0.715

---

assay: binders from COS7 lysate, DM2A8 probe, primary screen, torsin A project, cell lysate, small-molecule microarray, fluorescence 635/667 (AID 1065); details: higher = more signal; small-molecule microarray, COS7 cell lysate, probe DM2A8, fluorescence, COS7 lysate expressing mutant human TOR1A unless noted
Classification field: enter satisfied for composite z-score values not below -0.3, not satisfied for values below it.

# count of solved cases: 3
CCCC[C@@H]1C[C@H]1[C@@H](NP(=O)(c1ccccc1)c1ccccc1)c1ccc(Cl)cc1; not satisfied
COC(=O)[C@@]1(Cc2ccccc2)[C@H]2c3cc(C(=O)N(C)C)n(C)c3C[C@H]2CN1C(=O)c1ccccc1; not satisfied
CCCC=C(CCC)[C@@H](NP(=O)(c1ccccc1)c1ccccc1)c1ccccc1; satisfied

In: Could you please find out whether COC(=O)[C@H]1C(=O)c2ccccc2O[C@@](C(=O)OC)(c2ccccc2)[C@@H]1c1ccccc1 has composite z-score that meets -0.3 or exceeds it?
Out: satisfied

In: Given the entry CCOC(=O)[C@H]1CC=C2C(=O)Oc3ccccc3[C@@H]21 , answer whether its composite z-score meets or surpasses -0.3.
Out: not satisfied

In: Reported composite z-score reaches at least -0.3 for CCc1cc2c(nc1CC)CCN(CCC(C)=NOC)C2 ?
Out: satisfied

In: Confirm if composite z-score reported for the compound CCCc1cc2c(n1Cc1ccco1)C(C)C1CN(C(=O)c3ccccc3)C(C)(C(=O)OC)C21 (stereo not drawn) is -0.3 or above.
Out: satisfied

In: Is composite z-score at least -0.3? Consider COC(=O)NCC=Cc1nc(CCC=CC(=O)O[C@H]2CC3CC(=O)O[C@@H](C=CCC(C)C)C[C@@H]4CC[C@H](C)[C@@H](C[C@@H](OC)C[C@H](C2)O3)O4)co1
Out: not satisfied

---

test system: Neuregulin-1 EGF-like domain; assay: small molecules binding NRG1 EGF domain – biochemical, small-molecule microarray, 635 nm fluorescence, primary screen (AID 1081); settings: higher = more signal;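 also: binding of the protein to compounds printed on small-molecule microarray slides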
Lab note: anything with composite z-score at or over 0.7 counts as yes (1); the rest go in no (0).

Sample answers from the record:
COc1cc2c(cc1O)C(C)N(C)CC2 (centres undefined); yes (1)
COC(=O)[C@H]1[C@H](c2ccccc2)C(=O)[C@]2(O)c3ccccc3O[C@@]12c1ccccc1; no (0)
CCCc1cc2c(n1Cc1cccc(Cl)c1)C(C)C1CN(C(=O)c3ccccc3)C(C)(C(=O)OC)C21 (centres undefined); yes (1)
CCCc1cc2c(n1Cc1ccc(C)cc1)C(C)C1CN(C(=O)c3ccccc3)C(C)(C(=O)OC)C21 (centres undefined); yes (1)
COC(=O)[C@@]1(Cc2ccccc2)[C@H]2c3cc(C(=O)N(C)C)[nH]c3C[C@H]2CN1C(=O)c1ccccc1; yes (1)

In: Does the compound CCCc1cc2c(n1CCO)C(C)C1CN(C(=O)c3ccccc3)C(C)(C(=O)OC)C21 (centres undefined) have recorded composite z-score that is 0.7 or more?
Out: yes (1)

In: Does the reported composite z-score for C[C@@H]1Cc2c(cnc3c2CN(C)CC3)CO1 fall at or above the 0.7 mark?
Out: no (0)

In: Please check the record C[C@H]1O[C@H]2C3=C(C(=O)[C@@H]4O[C@@H]4[C@@H]3O)[C@@H]1[C@@H]1[C@@H](C)OC=C3[C@@H](O)[C@H]4O[C@H]4C(=O)[C@]312 and state if its composite z-score is at or above 0.7.
Out: no (0)

---

assay: small molecules captured by biotinylated probe aFGF10 – biochemical, small-molecule microarray, fluorescence 635/667, stem cell growth factor project, primary screen (AID 1071); details: higher = more signal; small-molecule microarray, probe aFGF10, fluorescence unless noted;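 also: score merges 667 nm spot intensity and signal to noise from triplicate slides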
Mark label 1 for reported composite z-score of -0.04 or greater; mark label 0 for anything smaller.

The following molecules have reported results that may help.
C[C@H]1O[C@H]2C3=C(C(=O)[C@@H]4O[C@@H]4[C@@H]3O)[C@@H]1[C@@H]1[C@@H](C)OC=C3[C@@H](O)[C@H]4O[C@H]4C(=O)[C@]312; label 0
C=C(CC1(CNP(=O)(c2ccccc2)c2ccccc2)CC1)c1ccccc1; label 1
CN1CCC(c2ccc(CO)cc2)=CC1c1cccs1 (stereo not drawn); label 0
COC(=O)[C@@]1(Cc2ccccc2)[C@H]2c3cc(C(=O)N(C)C)n(C)c3C[C@H]2CN1C(=O)c1ccccc1; label 1
CCCc1cc2c(n1Cc1ccc(C)cc1)C(C)C1CN(C(=O)c3ccccc3)C(C)(C(=O)OC)C21 (stereo not drawn); label 1

In: Please indicate if the recorded composite z-score for COC(=O)[C@@]1(Cc2ccccc2)[C@H]2c3cc(C(=O)N(C)C)[nH]c3C[C@H]2CN1C(=O)c1ccccc1 meets or exceeds -0.04.
Out: label 0

---

# composite z-score annotations
assay: probe aShh binding to arrayed compounds – biochemical, biotinylated probe, 635/667 nm fluorescence, primary screen (AID 1114); details: higher = more signal; small-molecule microarray, probe aShh, fluorescence unless noted;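 also: probe is biotin-labelled aShh protein from a stem cell growth factor screen; measures binding of labelled protein to compounds printed on the slide; score merges feature fluorescence at 667 nm with signal-to-noise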

CN1CCc2nc(CO)c(CO)cc2C1; -0.138
COC(=O)NCC=Cc1nc(CCC=CC(=O)O[C@H]2CC3CC(=O)O[C@@H](C=CCC(C)C)C[C@@H]4CC[C@H](C)[C@@H](C[C@@H](OC)C[C@H](C2)O3)O4)co1; -0.345
CCCc1cc2c(n1CCO)C(C)C1CN(C(=O)c3ccccc3)C(C)(C(=O)OC)C21 (stereo not given); 0.0545

Next compound, please.
In: So what does the record say about composite z-score for C=C(CC1(C(C)NP(=O)(c2ccccc2)c2ccccc2)CC1)c1ccccc1 (stereo not given) ?
Out: 0.128

---

test system: Sonic hedgehog protein (Shh); experiment: Sonic hedgehog microarray binding compounds – biochemical, small-molecule microarray, 635/667 nm fluorescence, primary screen (AID 1151); details: 635 nm fluorescence, higher = more signal;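 also: Shh protein binding to compounds spotted on small-molecule microarray slides; score combines spot fluorescence intensity with signal-to-noise across triplicate slides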
measurementName: composite z-score
Field format: numeric only.

Some solved cases for reference:
OCc1ccc(C2=CC(c3cccs3)N(Cc3cccc(OC(F)(F)F)c3)CC2)cc1 (centres undefined); 1.05
COC(=O)[C@@]1(Cc2ccc(F)cc2)[C@H]2c3cc(C(=O)N(C)C)[nH]c3C[C@H]2CN1C(=O)c1ccccc1; -0.879
CCCC[C@@H]1C[C@H]1[C@@H](NP(=O)(c1ccccc1)c1ccccc1)c1ccc(Cl)cc1; -1.29

In: What measured composite z-score goes with COC(=O)[C@H]1[C@@H](O)[C@@]2(O)c3c(OC)cc(OC)cc3O[C@@]2(c2ccc(OC)cc2)[C@@H]1c1ccccc1 ?
Out: 0.683

---

experiment: calcein-AM signal in unstimulated myeloma cells – cell-based, calcein-AM fluorescence, 48 h, PK04 Diversity Set, profiling panel (AID 1166); details: higher = more signal; RPMI8226 myeloma viability, calcein-AM fluorescence, 48 h unless noted;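 also: cells grown under basal conditions without added stimulus; test concentration not given here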
Listed below: z-score values for each entry.

Examples with their reported z-score follow.
COC(=O)[C@@]1(Cc2ccccc2)[C@H]2c3cc(C(=O)N(C)C)n(C)c3C[C@H]2CN1C(=O)c1ccccc1; -1.19
CCCC[C@@H]1C[C@H]1[C@@H](NP(=O)(c1ccccc1)c1ccccc1)c1ccc(Cl)cc1; -4.62
C[C@@H]1OC=C2[C@@H](O)[C@H]3O[C@H]3C(=O)[C@]23[C@H]1[C@H]1C2=C([C@@H](O)[C@H]4O[C@H]4C2=O)[C@@H]3O[C@@H]1C; -0.594
COC(=O)[C@@]1(Cc2ccccc2)[C@H]2c3cc(C(=O)N(C)C)[nH]c3C[C@H]2CN1C(=O)c1ccccc1; -0.458
CN1CCC(c2ccc(CO)cc2)=CC1c1cccs1 (stereo not drawn); -0.157

Turning now to a further compound:
In: What does the data say about its z-score? Entry: C[C@@H]1Cc2c(cnc3c2CN(C)CC3)CO1
Out: 0.089

---

experiment: JC-1 mitochondrial signal, unstimulated MM1S myeloma – cell-based, JC-1 fluorescence, 24 h, 100 nL compound, profiling panel (AID 1170); conditions: MM1S mitochondrial potential, higher = more signal; also: test concentration not given here
Recorded z-score for the following molecules
Lab note: jot the number down without any unit.

Known results for molecules:
C=C(CC1(C(C)NP(=O)(c2ccccc2)c2ccccc2)CC1)c1ccccc1 (centres undefined); -0.133
C[C@H]1O[C@H]2C3=C(C(=O)[C@@H]4O[C@@H]4[C@@H]3O)[C@@H]1[C@@H]1[C@@H](C)OC=C3[C@@H](O)[C@H]4O[C@H]4C(=O)[C@]312; -0.996
CCCC[C@@H]1C[C@H]1[C@@H](NP(=O)(c1ccccc1)c1ccccc1)c1ccc(Cl)cc1; -1.11
CCCc1cc2c(n1Cc1ccc(C)cc1)C(C)C1CN(C(=O)c3ccccc3)C(C)(C(=O)OC)C21 (centres undefined); -1.59
OCc1ccc(C2=CC(C3CC3)N(Cc3sc4ccccc4c3Cl)CC2)cc1 (centres undefined); -0.434

In: Query: z-score; subject: CCc1cc2c(nc1CC)CCN(CCC(C)=NOC)C2
Out: 0.196

In: Recorded z-score of CCCC=C(CCC)[C@@H](NP(=O)(c1ccccc1)c1ccccc1)c1ccccc1 , please.
Out: -1.5

In: Sample CN1CCC(c2ccc(CO)cc2)=CC1c1cccs1 (centres undefined) — what was its z-score?
Out: -0.277

In: Param item = C[C@@H]1Cc2c(cnc3c2CN(C)CC3)CO1 ; retrieve measured z-score.
Out: 0.677
